System: THLE-2 (transformed human liver epithelial) cells
Assay: THLE assay (cell viability by cellular ATP)
Format: cell-based
Settings: 72 h exposure; concentration range 300-0.058 μM; read-out: THLE IC50
ENDPOINT LABEL: pIC50
The read-out pIC50 is expressed as -log10 of concentration in moles per litre.

# pIC50 (compound: CC(C)COc1cccc2onc(OCC3CCN(CC4(O)CCOCC4)CC3)c12 [J] ) is 4.25

###

Biological target: human 5-HT4d (Homo sapiens, UniProt Q13639)
Construct: expressed in transfected cells; host or cells: HEK293
Sequence (Q13639 1-360 isoform Q13639-3): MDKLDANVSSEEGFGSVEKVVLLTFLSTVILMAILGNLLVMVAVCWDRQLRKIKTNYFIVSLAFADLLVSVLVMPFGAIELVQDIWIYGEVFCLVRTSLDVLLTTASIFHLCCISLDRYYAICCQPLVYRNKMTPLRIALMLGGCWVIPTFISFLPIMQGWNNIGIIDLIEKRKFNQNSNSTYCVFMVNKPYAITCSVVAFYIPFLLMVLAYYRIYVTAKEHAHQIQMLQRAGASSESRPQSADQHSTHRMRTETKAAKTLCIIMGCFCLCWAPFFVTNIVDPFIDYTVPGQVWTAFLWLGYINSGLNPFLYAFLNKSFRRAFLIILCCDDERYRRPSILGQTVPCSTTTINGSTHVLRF
Assay: Agonist-induced cAMP elevation in human 5-HT4d transfected HEK293 cells, 96 well format
Assay type: cell-based
Conditions: 37° C.; 96-well format; normalized to 1,000 nM serotonin
Marks after values point to notes of the source that are not given here.
Provide the recorded % IA (intrinsic activity, % agonist effect) 37° C., 96-well format for the entries that follow.

# % IA (intrinsic activity, % agonist effect) 37° C., 96-well format (compound: CC(C)COc1cccc2onc(OCC3CCN(CC4(C(=O)O)CCCC4)CC3)c12 ) is 95.0^a %

# % IA (intrinsic activity, % agonist effect) 37° C., 96-well format (compound: O=C(O)C1(CN2CCC(COc3noc4cccc(OCC5(CO)CCCC5)c34)CC2)CCOCC1 ) is 79.0^a %

# % IA (intrinsic activity, % agonist effect) 37° C., 96-well format (compound: OC1(COc2cccc3onc(OCC4CCN(CC5(O)CCOCC5)CC4)c23)CCCC1 ) is 104%

# % IA (intrinsic activity, % agonist effect) 37° C., 96-well format (compound: CC(C)COc1cccc2onc(OCC3CCN(CC4(C(=O)O)CCOCC4)CC3)c12 ) is 118^a %

# % IA (intrinsic activity, % agonist effect) 37° C., 96-well format (compound: O=C(O)C1(CN2CCC(COc3noc4cccc(OCC(F)(F)F)c34)CC2)CCOCC1 ) is 103^a %

###

Molecular target: human 5-HT4d (Homo sapiens, UniProt Q13639)
Construct: expressed in transfected cells; host or cells: HEK293
Assay: Agonist-induced cAMP elevation in human 5-HT4d transfected HEK293 cells, 96 well format
Type: cell-based
Details: RT incubation; normalized to 1,000 nM serotonin; plate format not marked
Provide the recorded % IA (intrinsic activity, % agonist effect) RT for the entries that follow.
Supply the numeric figure in %, leaving out any unit text.

Case CC(C)COc1cccc2onc(OCC3CCN(CC4(O)CCOCC4)CC3)c12 , human 5-HT4d (Homo sapiens, UniProt Q13639), % IA (intrinsic activity, % agonist effect) RT recorded as 39.1

Case OC1(COc2cccc3onc(OCC4CCN(CC5(O)CCOCC5)CC4)c23)CCCC1 , human 5-HT4d (Homo sapiens, UniProt Q13639), % IA (intrinsic activity, % agonist effect) RT recorded as 30.8

Case CC(C)COc1cccc2onc(OCC3CCN(CC4(C(=O)O)CCCC4)CC3)c12 , human 5-HT4d (Homo sapiens, UniProt Q13639), % IA (intrinsic activity, % agonist effect) RT recorded as 36.0

Case O=C(O)C1(CN2CCC(COc3noc4cccc(OCC5(CO)CCCC5)c34)CC2)CCOCC1 , human 5-HT4d (Homo sapiens, UniProt Q13639), % IA (intrinsic activity, % agonist effect) RT recorded as 33.0

Case CC(C)COc1cccc2onc(OCC3CCN(CC4(C(=O)O)CCOCC4)CC3)c12 , human 5-HT4d (Homo sapiens, UniProt Q13639), % IA (intrinsic activity, % agonist effect) RT recorded as 55.5

Case O=C(O)C1(CN2CCC(COc3noc4cccc(OCC(F)(F)F)c34)CC2)CCOCC1 , human 5-HT4d (Homo sapiens, UniProt Q13639), % IA (intrinsic activity, % agonist effect) RT recorded as 56.3

###

Assay: Human Liver Microsome Stability Assay
Conditions: HLM 0.71 mg protein/ml, 1 uM compound, NADPH; hepatic clearance/hepatic blood flow (range 0-1)
Provide the recorded Er (extraction ratio) for the entries that follow.
When you answer, write just the number.

# Er (extraction ratio) (compound: CC(C)COc1cccc2onc(OCC3CCN(CC4(C(=O)O)CCCC4)CC3)c12 ) is 0.36

# Er (extraction ratio) (compound: OC1(COc2cccc3onc(OCC4CCN(CC5(O)CCOCC5)CC4)c23)CCCC1 ) is 0.83

# Er (extraction ratio) (compound: CC(C)COc1cccc2onc(OCC3CCN(CC4(C(=O)O)CCOCC4)CC3)c12 ) is 0.28

# Er (extraction ratio) (compound: CC(C)COc1cccc2onc(OCC3CCN(CC4(O)CCOCC4)CC3)c12 ) is 0.78

Data origin: patent US20120041026A1
